Measured pKd accompanies every entry in the list below.
TARGET_OR_TEST_SYSTEM: KMT9 (Homo sapiens)
Sequence (Q9Y5N5 whole entry): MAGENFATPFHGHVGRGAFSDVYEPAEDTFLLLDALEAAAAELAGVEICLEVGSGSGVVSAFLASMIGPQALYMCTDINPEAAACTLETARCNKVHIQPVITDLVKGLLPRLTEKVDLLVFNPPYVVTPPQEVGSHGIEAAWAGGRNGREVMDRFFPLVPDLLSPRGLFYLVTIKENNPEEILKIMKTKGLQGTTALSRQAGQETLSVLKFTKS
Sequence (Q9UI30 1-120 isoform Q9UI30-2 partner): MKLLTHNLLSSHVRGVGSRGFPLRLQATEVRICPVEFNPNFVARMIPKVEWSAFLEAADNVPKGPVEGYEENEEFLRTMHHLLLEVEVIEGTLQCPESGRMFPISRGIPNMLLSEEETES
EXPERIMENT: Microscale thermophoresis (MST) KMT9 binding
MEASUREMENT_CONTEXT: microscale thermophoresis, His-tag labelled KMT9 (20 nM); read-out: MST
pKd: −log10 of the molar value.

Solved entries (count: 5):
• Nc1ncnc2c1c(Br)cn2[C@@H]1C[C@H](CNC[C@H]2CCCNC2)[C@@H](O)[C@H]1O = < 6.00
• CNc1ncnc2c1ccn2[C@@H]1C[C@H](C(=O)NCCCNCCc2cccc(Oc3ccccc3)c2)[C@@H](O)[C@H]1O = 7.00 to 8.00
• Nc1ncnc2c1c(Br)cn2[C@@H]1C[C@H](C(=O)NC[C@H]2CCCNC2)[C@@H](O)[C@H]1O = 6.00 to 7.00
• CNc1ncnc2c1ccn2[C@@H]1C[C@H](C(=O)NCC2CCCCN2)[C@@H](O)[C@H]1O (stereo partly shown) = < 6.00
• O[C@@H]1[C@@H](CNCCCNCCc2ccccc2)C[C@@H](n2cc(-c3nc(Cc4ccccc4)cs3)c3cnc(Cl)nc32)[C@@H]1O = 7.00 to 8.00

Documented pKd of CCC(=O)NCCCNC[C@H]1O[C@@H](n2cnc3c(N)ncnc32)[C@H](O)[C@@H]1O : < 6.00

Documented pKd of Nc1ncnc2c1ncn2[C@@H]1O[C@H](C(=O)NCCCNCCc2ccccc2)[C@@H](O)[C@H]1O : 6.00 to 7.00
